Numbers sourced from patent US20240034774A1.

// neutralization IC50 lookup, one value per entry
- Target or test system: HIV-1 envelope glycoprotein gp120 of virus 7141 (HIV-1)
- Test description: cell-based or functional assay
Return type: number; implicit unit µg/mL.

Field: example entries. Status: answers known.
2.2.15-1 (antibody, human IgG1, kappa, V domains shown) VH: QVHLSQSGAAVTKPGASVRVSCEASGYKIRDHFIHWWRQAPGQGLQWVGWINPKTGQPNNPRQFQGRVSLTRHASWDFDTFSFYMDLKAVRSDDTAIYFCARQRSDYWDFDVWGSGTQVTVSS VL: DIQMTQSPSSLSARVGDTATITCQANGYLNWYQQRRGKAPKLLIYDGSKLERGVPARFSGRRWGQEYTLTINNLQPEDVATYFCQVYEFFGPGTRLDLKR ... 1.99
1.1.104-1 (antibody, human IgG1, kappa, V domains shown) VH: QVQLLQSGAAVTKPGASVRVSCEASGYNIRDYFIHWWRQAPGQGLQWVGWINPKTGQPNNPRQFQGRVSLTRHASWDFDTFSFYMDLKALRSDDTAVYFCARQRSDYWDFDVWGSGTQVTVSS VL: DIQMTQSPSSLSASVGDTATITCQANGYLNWYQQRRGKAPKLLIYDGSKLERGVPSRFSGRRWGQEYTLTINNLQPEDIATYFCQVYEFFGPGTRLDLKR ... 5.13

Now turn to the next binder.
[in] Which neutralization IC50 is reported for this binder? 3.1.17-1 (antibody, human IgG1, kappa, V domains shown) VH: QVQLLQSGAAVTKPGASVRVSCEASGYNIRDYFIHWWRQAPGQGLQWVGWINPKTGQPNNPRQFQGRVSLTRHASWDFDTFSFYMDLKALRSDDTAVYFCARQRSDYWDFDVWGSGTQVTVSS VL: DIQMTQSPSSLSARVGDTATITCQANGYLNWYQQRRGKAPKLLIYDGSKLERGVPARFSGRRWGQEYHLTINNLQPEDVATYFCQVYEFFGPGTRLDLKR
[out] 25.5
